// reported composite z-score for each item listed
assay: probe aNOTCH2 binding on compound microarray – biochemical, small-molecule microarray, 635/667 nm fluorescence, primary screen (AID 1121); conditions: higher = more signal;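 note: score merges feature fluorescence read at 667 nm with its signal to noise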

| molecule | composite z-score |
| --- | --- |
| O=C1C2C=CC(C(O)c3cccs3)N(Nc3ccc([N+](=O)[O-])cc3)C2C(=O)N1c1ccccc1 (configuration not stated) | -0.0694 |
| C=CCN1C(=O)[C@@]2(O[C@@H](CCn3cc([C@H](O)c4ccccc4)nn3)[C@H]([Si](C)(C)c3ccc(OC)cc3)[C@H]2C)c2cc(N3C(=O)c4cccc5cccc3c45)ccc21 | -0.223 |
| CN(C)c1ccc(C(O)C2C=CC3C(=O)N(Cc4ccccc4)C(=O)C3N2n2cnnc2)cc1 (configuration not stated) | -0.0993 |
| COc1ccc([Si](C)(C)[C@@H]2[C@@H](CC(=O)N3Cc4ccccc4C[C@H]3CO)O[C@]3(C(=O)N(Cc4cccc(N5CCOC5=O)c4)c4ccccc43)[C@H]2C)cc1 | -0.117 |
| COC(=O)C1(Cc2ccccc2)C=C2C(=C(C)C(=O)C2C)CN1 (configuration not stated) | 0.197 |
| O=C1C[C@@](C(=O)NCc2ccccc2)(c2ccc([N+](=O)[O-])cc2)[C@@H](c2ccc(CO)cc2)N1C1CCCCC1 | 0.0847 |
| O=C1O[C@@H](c2ccccc2)[C@@H](c2ccccc2)N2[C@@H](c3ccccc3OCCO)[C@]3(C(=O)Nc4ccc(C#CCCO)cc43)[C@@H](C(=O)NC[C@H](O)c3ccccc3)[C@H]12 | 0.255 |
